target: KRasG12C (Homo sapiens, UniProt P01116, G12C); construct: biotin (biotinylated); made in house; assay: KRasG12C functional assay (HTRF, SOS-mediated nucleotide exchange / Raf RBD binding); assay type: biochemical; details: 4 hrs incubation with GDP loaded biotinylated KRasG12C; single experiment or average of two or more; read-out: KRasG12C functional assay IC50 value
Sequence (P01116 1-188 isoform P01116-2 G12C): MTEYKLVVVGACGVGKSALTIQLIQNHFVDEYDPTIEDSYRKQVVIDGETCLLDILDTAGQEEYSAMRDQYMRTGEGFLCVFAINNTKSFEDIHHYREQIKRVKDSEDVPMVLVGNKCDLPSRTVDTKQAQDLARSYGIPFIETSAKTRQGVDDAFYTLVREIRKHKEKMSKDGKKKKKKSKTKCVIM
pIC50: −log10 of the molar value.
EXPERIMENTAL_READOUT: pIC50

COMPOUND	TGT	READOUT_NUMBER
C=CC(=O)N1C[C@H]2COc3c(Cl)c(-c4c(C)ccc5cc[nH]c(=O)c45)c(F)c4ncnc(c34)N2C[C@H]1C (single isomer, unassigned) [Example 48]	KRasG12C (Homo sapiens, UniProt P01116, G12C)	7.34

I = C=CC(=O)N1CCN2c3ncnc4c(F)c(-c5c(F)ccc6[nH]ncc56)c(Cl)c(c34)OC[C@@H]2C1 (single isomer, unassigned) [Example 22]
II = C=CC(=O)N1CCN2c3ncnc4c(F)c(-c5c(C)ccc6cc[nH]c(=O)c56)c(Cl)c(c34)OCCC2C1 (single isomer, unassigned) [Example 36]
III = C=CC(=O)N1C[C@H]2COc3c(Cl)c(-c4c(O)cccc4F)c(F)c4ncnc(c34)N2C[C@@H]1C
IV = C=CC(=O)N1CCN2c3ncnc4c(F)c(-c5c(F)ccc6[nH]nnc56)c(Cl)c(c34)OC[C@@H]2C1 (single isomer, unassigned) [Example 26]
V = C=CC(=O)N1CCN2c3ncnc4c(F)c(-c5c(C)cccc5O)c(Cl)c(c34)OC[C@@H]2C1 (single isomer, unassigned) [Example 13]
Request: Could you please sort these 5 entries by pIC50 from high to low? Give the order by naming the labels one after another as requested.
Result: II, I, IV, III, V

I = C=CC(=O)N1CCN2c3ncnc4c(Cl)c(-c5c(O)cccc5F)c(F)c(c34)OC[C@@H]2C1 (single isomer, unassigned) [Example 45]
II = C=CC(=O)N1C[C@H]2COc3c(Cl)c(-c4c(C)ccc5cc[nH]c(=O)c45)c(F)c4ncnc(c34)N2C[C@H]1C (single isomer, unassigned) [Example 49]
Request: Quick check, higher pIC50 between I and II ? // caller expects the label of the chosen entry
Result: I
